# STUDY_SYSTEM: angiotensin-converting enzyme (ACE) (Rattus norvegicus)
# Construct: Normotensive rats were anesthetized with urethane; from tissue; host or cells: endogenous enzyme of the whole living animal (normotensive rats, in vivo)
# Sequence (P47820 36-1313): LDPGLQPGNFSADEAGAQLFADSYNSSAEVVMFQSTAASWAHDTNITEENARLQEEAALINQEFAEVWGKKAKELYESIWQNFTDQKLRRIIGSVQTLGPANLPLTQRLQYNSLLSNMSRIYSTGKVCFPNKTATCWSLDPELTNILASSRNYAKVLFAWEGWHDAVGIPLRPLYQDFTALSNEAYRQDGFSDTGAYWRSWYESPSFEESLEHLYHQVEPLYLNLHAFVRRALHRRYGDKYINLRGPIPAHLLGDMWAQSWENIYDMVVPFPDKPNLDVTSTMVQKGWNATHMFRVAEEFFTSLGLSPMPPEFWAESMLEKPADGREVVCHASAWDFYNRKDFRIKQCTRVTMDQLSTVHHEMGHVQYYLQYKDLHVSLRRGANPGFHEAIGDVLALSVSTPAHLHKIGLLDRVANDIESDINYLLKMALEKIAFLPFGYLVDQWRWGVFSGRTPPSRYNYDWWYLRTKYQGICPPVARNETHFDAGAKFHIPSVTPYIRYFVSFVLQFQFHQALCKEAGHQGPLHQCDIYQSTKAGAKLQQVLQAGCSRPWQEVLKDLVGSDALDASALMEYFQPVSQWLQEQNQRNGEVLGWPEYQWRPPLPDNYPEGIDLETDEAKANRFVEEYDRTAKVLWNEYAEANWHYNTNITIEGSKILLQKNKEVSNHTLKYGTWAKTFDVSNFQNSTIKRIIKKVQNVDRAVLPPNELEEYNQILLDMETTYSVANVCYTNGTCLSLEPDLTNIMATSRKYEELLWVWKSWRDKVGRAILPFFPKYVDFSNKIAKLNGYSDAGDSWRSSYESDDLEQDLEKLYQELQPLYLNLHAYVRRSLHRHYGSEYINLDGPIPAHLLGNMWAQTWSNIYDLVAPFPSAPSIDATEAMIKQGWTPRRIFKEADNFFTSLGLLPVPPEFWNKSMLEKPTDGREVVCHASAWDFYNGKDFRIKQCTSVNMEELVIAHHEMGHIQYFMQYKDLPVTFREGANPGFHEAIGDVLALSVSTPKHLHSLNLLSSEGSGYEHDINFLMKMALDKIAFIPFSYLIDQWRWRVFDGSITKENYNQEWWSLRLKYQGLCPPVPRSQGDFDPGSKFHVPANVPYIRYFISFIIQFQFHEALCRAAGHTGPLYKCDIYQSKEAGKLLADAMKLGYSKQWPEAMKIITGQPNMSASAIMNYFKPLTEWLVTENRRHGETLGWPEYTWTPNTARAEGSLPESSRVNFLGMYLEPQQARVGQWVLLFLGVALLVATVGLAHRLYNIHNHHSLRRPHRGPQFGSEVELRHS
# TEST: ACE-inhibitory activity in vivo (pressor response to angiotensin I)
# TEST_PARAMETERS: rat, 1.0 mg/kg orally, anesthetized normotensive rats, angiotensin I 300 ng/kg i.v.; read-out: ACE-inhibitory activity (%), percentage inhibition of ACE-activity in vivo
ENDPOINT: inhibition at 1 mg/kg

CCN1C[C@@H](C(=O)O)N(C(=O)[C@H](C)CSC(=O)c2ccccc2)C1=O [C2 H5 C6 H5]
84%

Prompt line: Query inhibition at 1 mg/kg for CC(=O)SC[C@@H](C)C(=O)N1C(=O)N(C)C[C@H]1C(=O)O [CH3 CH3]
Response line: 67%

Prompt line: Query inhibition at 1 mg/kg for C[C@H](CSC(=O)c1ccccc1)C(=O)N1C(=O)N(C)C[C@H]1C(=O)O [CH3 C6 H5]
Response line: 88%

Prompt line: Query inhibition at 1 mg/kg for C[C@H](CSC(=O)c1ccccc1)C(=O)N1C(=O)N(Cc2ccccc2)C[C@H]1C(=O)O [C6 H5 CH2 C6 H5]
Response line: 76%

Every entry's value here was drawn from patent US4380644A.
